- Tested on: African Swine Fever Virus (ASFV, China/2018/AnhuiXCGQ)
- Method summary: microbe, parasite or virus in culture
- Type: cell-based
- Condition set: African swine fever virus
pIC50: −log10 of the molar value.

{"Molecule": "Nc1nc2c(ncn2[C@@H](C=O)O[C@@H](C=O)CO)c(=O)[nH]1 [Dialdehyde-Guanosine, dialdehyde form of guanosine]", "Target entity": "African Swine Fever Virus (ASFV, China/2018/AnhuiXCGQ)", "pIC50": 4.10}

---

- Method summary: in vitro
- Condition set: pig, pk15 cells
Measured CC50 values are reported for all entries that follow.

{"Molecule": "O=c1[nH]c(=O)c2ncn([C@@H](CO)OC(CO)CO)c2[nH]1 [Acyclic diol-Xanthosine, acyclic diol form of xanthosine]", "CC50": "> 10 mM"}
{"Molecule": "Nc1nc2c(ncn2[C@@H](CO)OC(CO)CO)c(=O)[nH]1 [Acyclic diol-Guanosine, acyclic diol form of guanosine]", "CC50": "> 10 mM"}
{"Molecule": "Nc1nc2c(ncn2[C@@H](C=O)O[C@@H](C=O)CO)c(=O)[nH]1 [Dialdehyde-Guanosine, dialdehyde form of guanosine]", "CC50": "> 6 mM"}
{"Molecule": "O=c1[nH]cnc2c1ncn2[C@@H](CO)OC(CO)CO [Acyclic diol-Inosine, acyclic diol form of inosine]", "CC50": "> 10 mM"}
